METHOD SUMMARY: Bimatoprost solubility in formulation vehicles with different solubilizers
Assay type: physicochemical
TEST PARAMETERS: formulation vehicle with 1% Polysorbate 80, aqueous with cosolvent or surfactant or cyclodextrin; vehicle with 1% Polysorbate 80, 5 °C, measured at 8 weeks
MEASURED METRIC: solubility at 8 weeks (µg/mL)
Form entry: value (µg/mL) — number only.

Exam item: Look at this compound and give its reported solubility at 8 weeks. `CCNC(=O)CCC/C=C\C[C@@H]1[C@@H](/C=C/[C@@H](O)CCc2ccccc2)[C@H](O)C[C@@H]1O`
Marked response: 1680

* * *

METHOD SUMMARY: Bimatoprost solubility in formulation vehicles with different solubilizers
Type: physicochemical
TEST PARAMETERS: formulation vehicle with 1% Polysorbate 20, aqueous with cosolvent or surfactant or cyclodextrin; vehicle with 1% Polysorbate 20, 40 °C, measured at 8 weeks
MEASURED METRIC: solubility at 8 weeks (µg/mL)
Express your answer in µg/mL, writing the number without its unit.

Exam item: Return reported solubility at 8 weeks; argument: `CCNC(=O)CCC/C=C\C[C@@H]1[C@@H](/C=C/[C@@H](O)CCc2ccccc2)[C@H](O)C[C@@H]1O`
Marked response: 1050
